tested on: HSC1; assay: relative IC50 (inflection point of fitted dose-response curve, CellTiter-Glo viability, 72 h; top asymptote may be below 50% inhibition); higher = less potent
Measured Attribute: relative IC50 (nM)
Give just the numeric value; nM need not be written.

CC(C)(C)c1cc(NC(=O)Nc2ccc(-c3cn4c(n3)sc3cc(OCCN5CCOCC5)ccc34)cc2)no1 ... 197

# relative IC50 lookup, item `Nc1ccccc1NC(=O)c1ccc(CNC(=O)OCc2cccnc2)cc1`
2340

# relative IC50 lookup, item `C[C@]12O[C@H](C[C@]1(O)CO)n1c3ccccc3c3c4c(c5c6ccccc6n2c5c31)CNC4=O`
29.3

# relative IC50 lookup, item `CO[C@H]1[C@@H](N(C)C(=O)c2ccccc2)C[C@@H]2O[C@@]1(C)n1c3ccccc3c3c4c(c5c6ccccc6n2c5c31)C(=O)NC4`
112

# relative IC50 lookup, item `Oc1nc(-c2ccc(C(F)(F)F)cc2)nc2c1CSCC2`
286

# relative IC50 lookup, item `CCNC(=O)c1noc(-c2cc(C(C)C)c(O)cc2O)c1-c1ccc(CN2CCOCC2)cc1`
14.3
